molecular target: UniProt P29275; experiment: Displacement of [3H]DPCPX from human recombinant adenosine A2B receptor expressed in HEK293 cells by beta scintillation counter
Sequence (P29275 whole entry): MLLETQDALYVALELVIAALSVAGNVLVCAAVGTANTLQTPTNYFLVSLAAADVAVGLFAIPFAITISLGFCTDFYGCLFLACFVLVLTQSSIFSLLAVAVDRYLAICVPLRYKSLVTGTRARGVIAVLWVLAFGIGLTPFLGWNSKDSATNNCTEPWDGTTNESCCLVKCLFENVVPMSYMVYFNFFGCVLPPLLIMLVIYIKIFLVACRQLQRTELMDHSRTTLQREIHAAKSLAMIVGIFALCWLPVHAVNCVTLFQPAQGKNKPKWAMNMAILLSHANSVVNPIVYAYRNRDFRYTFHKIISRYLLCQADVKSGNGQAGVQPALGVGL
# note: boundary value 2 nM maps to class 0; Ki below it maps to class 1

| smiles representation | discrete label |
| --- | --- |
| CCCn1c(=O)c2[nH]c(-c3ccc(COC(=O)Nc4ccsc4)cc3)cc2n(CCC)c1=O | class 0 |
| Cn1c(=O)c2[nH]c(-c3ccc(COC(=O)Nc4cccs4)cc3)cc2n(C)c1=O | class 1 |
| Cn1c(=O)c2[nH]c(-c3ccc(COC(=O)Nc4ccsc4)cc3)cc2n(C)c1=O | class 1 |

Kindly review the next molecule as well.
API: query returns whether the molecule falls strictly under 2 nM in Ki. Query: Cn1c(=O)c2[nH]c(-c3ccc(COC(=O)Nc4ccco4)cc3)cc2n(C)c1=O
class 0
